system: RXF 393 renal; test: NCI tumour cell line growth inhibition, 48 h; in the data active = GI50 below about 0.43 µM; inactive = the rest
Respond using exactly one of the listed classes: 1 = active, -1 = inactive

For orientation, consider the following solved cases.
molecule=Nc1c(C(=O)c2cccc(-c3cccnc3)c2)cnn1-c1ccc(F)cc1 assigned_class=-1
molecule=CNc1c2ccccc2nc2occ(Cl)c12 assigned_class=-1
molecule="CCN1C(=O)N(CC)C2C1NN=c1s/c(=C3\\C(=O)Nc4ccccc43)c(=O)n12 (stereo not given)" assigned_class=1
molecule=O=[N+]([O-])c1ccc(Sc2cccc[n+]2[O-])c2nonc12 assigned_class=-1

[Q] Test call, this molecule: COc1ccc(-n2nc(C)c3c(Nc4ccc(NC(=O)Nc5cccc(C(F)(F)F)c5)cc4)ncnc32)cc1
[A] -1

----------
system: SR leukemia; assay: NCI tumour cell line growth inhibition, 48 h
Where a SMILES comes first, the peptide text is derived from it. [ ]: non-standard residue; d: D form. Ava = NCCCCC(=O)O; Mpa = O=C(O)CCS
Could you please report measured TGI for the items listed next?

compound=COc1cc2ncnc(NS(=O)(=O)c3cc4ccccc4s3)c2cc1OC test_result="> 100 µM"
compound=CC(=O)/C=C1\CC(=O)N(C)c2ccccc2N1 test_result="> 100 µM"
compound=O=C(Nc1ccccc1C(=O)NCc1ccccc1)/C(=C/c1ccccc1O)NC(=O)c1ccccc1 test_result="> 100 µM"
compound=COc1ccc2[nH]c3ccc4cc[n+](CCN5CCC(C6CCN(CC[n+]7ccc8ccc9[nH]c%10ccc(OC)cc%10c9c8c7)CC6)CC5)cc4c3c2c1 test_result="50 µM"
compound=O=C1/C(=C/c2cccc([N+](=O)[O-])c2)N=C(c2ccccc2)N1c1nc2ccc(Sc3ccccc3)cc2[nH]1 test_result="> 100 µM"
compound=COc1cc(/C=C/C(=O)c2c(C)n([O-])c3ccccc3[n+]2=O)cc(OC)c1OC test_result="14.9 µM"

Each of the following entries comes with a recorded value; kindly state TGI for each.
1. CC(C)CC1c2[nH]c3ccccc3c2C[C@H]2C(=O)NC(Cc3c[nH]c4ccccc34)C(=O)N12 (stereo partly specified)
2. COC(=O)NC1(NC(=O)OC)NC(=O)c2ccccc2N1
3. COc1ccc(C2=C(OC(C)=O)c3cccn3-c3ccc(Cl)cc3S2)cc1
4. C=CC[P@]1(=O)O[C@H](c2ccccc2)C(C)N1C(C)C (stereo partly specified)
5. COc1ccc(-c2c(C#N)c(N)[nH]c(=S)c2C#N)cc1

[A]
45.5 µM
> 100 µM
7.3 µM
> 100 µM
> 100 µM

Batch: TGI for all items listed.
1. CC(=O)CC[N+](C)(C)C
2. O=C(NC(=S)Nc1ccc(Br)cc1)c1ccc2c(c1)Sc1ccccc1O2
3. Cc1cc2ncn(CC(=O)O)c2cc1C
4. CCOC(=O)/C(C(N)=O)=C(\O)C(=O)/C=C(\O)c1ccc(Cl)cc1
5. CC(NC(=O)CCS)C(=O)NC(C)C(=O)NC(Cc1c[nH]c2ccccc12)C(=O)NC(Cc1c[nH]cn1)C(=O)NC(CO)C(=O)NC(Cc1c[nH]c2ccccc12)C(=O)NCCCCC(=O)NC(C)C(=O)NC(CCC(N)=O)C(=O)NC(CCCCN)C(=O)NC(C)C(=O)NC(CCCNC(=N)N)C(=O)NC(CCCCN)C(N)=O (stereo unspecified) ([Mpa]AAWHSW[Ava]AQKARK-NH2; configuration not given here)
6. CC(C)(C)C1=CC(=N/N=c2\scc(-c3ccccc3)n2Cc2ccccc2)C=C(C(C)(C)C)C1=O

[A]
1. 21.5 µM
2. > 100 µM
3. > 100 µM
4. 44.5 µM
5. > 100 µM
6. > 100 µM

Give measured TGI for every item shown.
1. Nc1cc(CO)cc(Nc2c3ccccc3nc3ccccc23)c1
2. CCO/N=C\c1ccc2oc(-c3ccccc3)cc(=O)c2c1
3. CNc1c2ccccc2nc2occ(Cl)c12
4. O=C1OC(C(O)CO)C(C(O)CO)OC1=O (stereo unspecified)
5. C[C@H]1C[C@@H](n2c(Nc3ccc(OC(F)(F)F)cc3)nc3cc(CCC(=O)O)ccc32)CC(C)(C)C1

[A]
["> 100 µM", "1.99 µM", "50.6 µM", "> 10 µM", "36.6 µM"]

----------
tested on: SF-268 CNS; assay: NCI tumour cell line growth inhibition, 48 h
So I've got a bunch of compounds here, and I need their TGI values.
Answers are plain numbers, in µM.

item_smiles=O=C1/C(=C/c2ccc(F)cc2)COc2ccc(O)c(O)c21 test_result=9.27
item_smiles=O=C(CCN1CCCC1)Nc1ccc2c(Nc3ccc(F)cc3)c3ccccc3nc2c1 test_result=2.82
item_smiles=CCCC(=O)Oc1ccc(/C(=C(\C)c2ccc(Cl)cc2)c2ccc(OCCN(CC)CC)cc2)cc1 test_result=19

--- query ---
[Q] Requested field: TGI. Item: Cc1cc(NS(=O)(=O)c2ccc(NC(=O)c3ccc(Cl)c4c(Nc5ccc(S(=O)(=O)Nc6cc(C)on6)cc5)c5ccccc5nc34)cc2)no1
[A] 42.3

----------
test system: MALME-3M melanoma; assay: NCI tumour cell line growth inhibition, 48 h
observation_type: TGI

Below, 4 compounds whose answers are already recorded.
compound=C[C@H]1C[C@@H](n2c(Nc3ccc(OC(F)(F)F)cc3)nc3cc(CCC(=O)O)ccc32)CC(C)(C)C1 test_result="37.3 µM"
compound=COc1ccc([N+](=O)[O-])c2c(NCCCN(C)C)c(C)c(C)nc12 test_result="> 100 µM"
compound=CCN(Cc1cc(Cl)cc(C)c1O)Cc1c(O)ccc2ccccc12 test_result="29.8 µM"
compound=COc1ccc(SCc2cc(OC)ccc2OC)cc1 test_result="> 100 µM"

Field: TGI. Fill in for each record below.
1. O=C1c2ccccc2C(=O)c2c1ccc1conc21
2. CCN1C(=O)N(CC)C2C1NN=c1s/c(=C3\C(=O)Nc4ccccc43)c(=O)n12 (stereo unspecified)

[A]
4.75 µM
38.4 µM

----------
tested on: COLO 205 colon; assay: NCI tumour cell line growth inhibition, 48 h
observation_type: TGI (µM)
Answers are plain numbers, in µM.

// worked examples, TGI included
compound=Cn1c(=O)nc2n(-c3ccc(Br)cc3)c3ccccc3nc-2c1=O observation_type=TGI uom=µM test_result=11.1
compound=O=C1/C(=C/c2cccc([N+](=O)[O-])c2)N=C(c2ccccc2)N1c1nc2ccc(Sc3ccccc3)cc2[nH]1 observation_type=TGI uom=µM test_result=96.8
compound=O=c1cc(NNc2ccccc2)[nH]c(=O)[nH]1 observation_type=TGI uom=µM test_result=31.8
compound="CC(C)(C)c1cc(C2c3cc4c(cc3OC(O)(CO)C2C(=O)O)OCO4)cc(C(C)(C)C)c1O (centres undefined) (tested in a mixture with another compound)" observation_type=TGI uom=µM test_result=37.8
compound=CCN(Cc1ccc(Cl)c(Cl)c1)c1ccc2nc(N)nc(N)c2c1C observation_type=TGI uom=µM test_result=1.69
compound=CS(=O)(=O)OCCN(CCOS(C)(=O)=O)c1ccc(C=Nc2ccc(-c3csc(Cc4ccccc4)n3)cc2)c(Cl)c1 observation_type=TGI uom=µM test_result=36
compound=CC(=O)CC[N+](C)(C)C observation_type=TGI uom=µM test_result=17.5
compound=COc1ccc(-n2nc(C)c3c(Nc4ccc(NC(=O)Nc5cccc(C(F)(F)F)c5)cc4)ncnc32)cc1 observation_type=TGI uom=µM test_result=3.49

[Q] Any idea what TGI came out for CN(C)CCNC(=O)c1ccc2c(c1)oc1cc3ccccc3c(=O)n12 on COLO 205 colon?
[A] 35.6

----------
tested on: SK-OV-3 ovarian; test: NCI tumour cell line growth inhibition, 48 h
observation_type: TGI

molecule=CN(C)S(=O)(=O)c1cccc(C(=O)Nc2nc(-c3ccc(F)c(F)c3)cs2)c1 observation_type=TGI test_result="> 100 µM"
molecule=N=c1oc2cc(O)ccc2cc1C(=O)Nc1ccccn1 observation_type=TGI test_result="> 100 µM"
molecule=O=[N+]([O-])c1ccc(Sc2cccc[n+]2[O-])c2nonc12 observation_type=TGI test_result="> 100 µM"

Each molecule below has a reported value. Please supply its TGI.
1. O=C(NCCCN1CCN(CCCNC(=O)c2cccc3ccccc23)CC1)c1cccc2ccccc12
2. Cc1cc(C)c2c(=N)c3ccccc3n(CCCCCCCCn3c4ccccc4c(=N)c4c(C)cc(C)nc43)c2n1
3. CN(C)CCNC(=O)c1cccc2c1C(=O)c1ccccc1C2=O
4. COc1cc(C[C@H]2COC(=O)[C@]2(O)Cc2ccc(OCc3ccccc3)c(OC)c2)ccc1OCc1ccccc1
5. O=c1cc(NNc2ccccc2)[nH]c(=O)[nH]1
6. O=C1/C(=C/c2cccc([N+](=O)[O-])c2)N=C(c2ccccc2)N1c1nc2ccc(Sc3ccccc3)cc2[nH]1
7. COC(=O)C1(Cc2ccc3c(c2)CCC3)Cc2ccc3c(c2C1=O)CCC3 (stereo not given)

[A]
1: 57.6 µM; 2: 3.18 µM; 3: > 100 µM; 4: > 100 µM; 5: > 100 µM; 6: > 100 µM; 7: > 100 µM

From: PubChem BioAssay (NCI)
